Measured values drawn from patent US4347177A for this set.

run description: Pharmacokinetics of bupropion in plasma after oral administration to four normal male subjects (RIA using 3H bupropion)
Assay type: in vivo
test context: human plasma, oral 200 mg bupropion-HCl (two 100 mg tablets), ± S.D., read-out: mean elimination half-life (converted)
parameter measured: half-life (h)
Give the value in h but do not write h after it.

Input: Report half-life for CC(NC(C)(C)C)C(=O)c1cccc(Cl)c1 (racemic) please.
Output: 2.9
